Biological target: T1, type I interferon receptor (UniProt P17181 28-557; P48551 27-515, limits assumed)
T1 sequence (looked up) 1: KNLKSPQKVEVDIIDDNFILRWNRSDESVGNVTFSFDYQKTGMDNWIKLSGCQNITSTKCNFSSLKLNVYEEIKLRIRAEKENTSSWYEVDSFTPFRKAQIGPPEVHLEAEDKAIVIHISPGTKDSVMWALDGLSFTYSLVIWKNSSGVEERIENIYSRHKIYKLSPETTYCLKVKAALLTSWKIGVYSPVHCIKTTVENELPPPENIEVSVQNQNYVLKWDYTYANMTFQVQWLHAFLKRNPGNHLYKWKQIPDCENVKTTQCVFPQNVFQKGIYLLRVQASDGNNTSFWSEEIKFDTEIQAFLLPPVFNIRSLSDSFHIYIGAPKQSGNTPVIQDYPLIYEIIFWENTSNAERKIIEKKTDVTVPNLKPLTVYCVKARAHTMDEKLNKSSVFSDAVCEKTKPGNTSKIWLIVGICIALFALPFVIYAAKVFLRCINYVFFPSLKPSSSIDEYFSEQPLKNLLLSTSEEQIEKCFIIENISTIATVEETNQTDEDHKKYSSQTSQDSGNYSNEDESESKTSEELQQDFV
T1 sequence (looked up) 2: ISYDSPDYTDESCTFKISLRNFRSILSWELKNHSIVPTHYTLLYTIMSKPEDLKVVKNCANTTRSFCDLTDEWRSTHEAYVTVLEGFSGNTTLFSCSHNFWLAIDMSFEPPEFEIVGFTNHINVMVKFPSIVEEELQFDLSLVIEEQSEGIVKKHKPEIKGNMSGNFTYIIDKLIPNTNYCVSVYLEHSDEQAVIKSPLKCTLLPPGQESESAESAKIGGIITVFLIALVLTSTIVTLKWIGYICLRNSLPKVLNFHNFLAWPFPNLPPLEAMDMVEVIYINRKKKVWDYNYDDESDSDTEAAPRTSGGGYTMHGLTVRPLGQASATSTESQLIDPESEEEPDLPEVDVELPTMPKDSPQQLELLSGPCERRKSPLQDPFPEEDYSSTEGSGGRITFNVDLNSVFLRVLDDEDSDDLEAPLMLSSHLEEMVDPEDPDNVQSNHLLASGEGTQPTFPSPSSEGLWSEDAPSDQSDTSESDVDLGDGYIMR
Assay: cell-based or functional assay
Measured endpoint: EC50 wt/EC50 var, ISRE-luciferase reporter assay in 293T cells

As a guide, the following entries are already answered.
binder="IFB1_23 (ligand) MGSSHHHHHHSSGLVPRGSHMSYNQLGELQRSSNFQSQKLLWQLNGRLEYCLKDRMNFDIPEEIKQLQQFQKEDAALTIYEMLQNIFAIFRQDSSSTGWNETIVENLLANVYHQINHLKTVLEEKLEKEDFTRGKEMSSLHLKRYYGRILHYLKAKEYSHCAWTIVRVEILRNFYFINRLTGYLRN" recorded_result="19.2 ratio"
binder="IFB1_39 (ligand) MGSSHHHHHHSSGLVPRGSHMSYNQLGELQRSSNFQSQKLLWQLNGRLEYCLKDRMNFDIPEEIKQLQQFQKEDAALTIYEMLQNIFAIFRQDSSSTGWNETIVENLLANVYHQINHLKTVLEEKLEKEDNTRGKEMSSLHLKRYYGRILHYLKAKEYSHCAWTIVRVEILRNFYFINRLTGYLRN" recorded_result="27.5 ratio"
binder="IFB1_64 (ligand) MGSSHHHHHHSSGLVPRGSHMSYNQLGELQRSSNFQSQKLLWQLNGRLEYCLKDRMNFDIPEEIKQKQQFQKEDAALTIYEMLQNIFAIFRQDSSSTGWNETIVENLLANVYHQINHLKTVLEEKLEKEDNTRGKEMSSRHLKRYYGRILHYLKAKEYSHCAWTIVRVEILRNFYFINRLTGYLRN" recorded_result="22.1 ratio"

Attention now turns to another entry.
# input Returns the measured EC50 wt/EC50 var, ISRE-luciferase reporter assay in 293T cells for the input binder. Input: IFB1_15 (ligand) MGSSHHHHHHSSGLVPRGSHMSYNQLGELQRSSNFQSQKLLWQLNGRLEYCLKDRMNFDIPEEIKQLQQFQKEDAALTIYEMLQNIFAIFRQDSSSTGWNETIVENLLANVYHQINHLKTVLEEKLEKEDNTRGKLMSSLHLKRYYGRILHYLKAKEYSHCAWTIVRVEILRNFYFINRLTGYLRN
# output 16.6 ratio
